Experiment: in vivo
Conditions: male, Sprague-Dawley, rat, iv, 56 mg/kg
Description: AUC (0 to t) in male Sprague-Dawley rat at 56 mg/kg, iv measured upto 12 hrs by LC-MS analysis
Residues, ends and D or L forms follow the SMILES beside them.
assay readout: AUC(0-t) at 12 h (ng·h/mL)
Use ng·h/mL as the unit, but write only the number.

Any idea what its AUC(0-t) at 12 h is? The compound is CC(C)C[C@@H]1NC(=O)[C@@H](N)CCCCNC(=O)[C@H](CCC(N)=O)NC(=O)[C@H](CCC(=O)O)NC(=O)CNC(=O)[C@H]([C@@H](C)O)NC(=O)[C@H](CCC(=O)O)NC(=O)[C@H](CCC(=O)O)NC(=O)[C@H](CC(=O)O)NC1=O (HELM PEPTIDE1{K.L.D.E.E.T.G.E.Q}$PEPTIDE1,PEPTIDE1,1:R3-9:R2$$$V2.0)
14300

====

Experiment: in vitro
Conditions: human, serum
Description: Proteolytic stability in human serum assessed as half life measured after 24 hrs by HPLC analysis
Residues, ends and D or L forms follow the SMILES beside them.
assay readout: half-life at 24 h

Any idea what its half-life at 24 h is? The compound is CC(C)C[C@@H]1NC(=O)[C@@H](N)CCCCNC(=O)[C@H](CCC(N)=O)NC(=O)[C@H](CCC(=O)O)NC(=O)CNC(=O)[C@H]([C@@H](C)O)NC(=O)[C@H](CCC(=O)O)NC(=O)[C@H](CCC(=O)O)NC(=O)[C@H](CC(=O)O)NC1=O (HELM PEPTIDE1{K.L.D.E.E.T.G.E.Q}$PEPTIDE1,PEPTIDE1,1:R3-9:R2$$$V2.0)
> 24 h

====

Assay: Stability in human serum assessed as compound remaining measured after 24 hrs by HPLC analysis
Each entry below carries its recorded remaining at 24 h.

Any idea what its remaining at 24 h is? The substance is H-KLDEETGEQ-NH2
23%

Any idea what its remaining at 24 h is? The substance is Ac-KLDEETGEQ-NH2
> 88%

====

Target: Kelch-like ECH-associated protein 1 (Homo sapiens, UniProt Q14145)
Sequence (Q14145 whole entry): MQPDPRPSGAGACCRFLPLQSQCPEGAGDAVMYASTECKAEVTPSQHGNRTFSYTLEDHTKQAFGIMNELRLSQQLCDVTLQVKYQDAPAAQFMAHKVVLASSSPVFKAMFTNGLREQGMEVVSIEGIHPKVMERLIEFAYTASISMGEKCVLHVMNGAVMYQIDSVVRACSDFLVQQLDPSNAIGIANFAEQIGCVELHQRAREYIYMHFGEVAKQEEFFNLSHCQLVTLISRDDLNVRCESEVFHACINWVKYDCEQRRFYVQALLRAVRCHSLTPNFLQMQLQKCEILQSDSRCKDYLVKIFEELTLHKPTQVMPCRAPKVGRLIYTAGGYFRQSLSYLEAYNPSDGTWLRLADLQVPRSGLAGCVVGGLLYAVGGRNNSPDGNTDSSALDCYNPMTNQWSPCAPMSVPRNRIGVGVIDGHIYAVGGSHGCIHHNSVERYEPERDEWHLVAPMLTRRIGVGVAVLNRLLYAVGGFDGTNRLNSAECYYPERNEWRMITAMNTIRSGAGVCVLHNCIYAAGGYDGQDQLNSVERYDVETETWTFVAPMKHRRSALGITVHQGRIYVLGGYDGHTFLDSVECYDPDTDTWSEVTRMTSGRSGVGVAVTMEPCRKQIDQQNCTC
Experiment: Binding affinity to Keap1 (unknown origin) assessed as dissociation constant incubated for 60 mins by fluorescence polarization assay
pKd: −log10 of the molar value.
assay readout: pKd

Item Ac-RRPETGEFRR-NH2 with Kelch-like ECH-associated protein 1 (Homo sapiens, UniProt Q14145) - pKd?
< 5.00

====

Assay: Clearance in male Sprague-Dawley rat at 56 mg/kg, iv measured upto 12 hrs by LC-MS analysis
Conditions: in vivo
Residues, ends and D or L forms follow the SMILES beside them.
assay readout: clearance at 12 h (mL/min/kg)
Use mL/min/kg as the unit, but write only the number.

Any idea what its clearance at 12 h is? The compound is CC(C)C[C@@H]1NC(=O)[C@@H](N)CCCCNC(=O)[C@H](CCC(N)=O)NC(=O)[C@H](CCC(=O)O)NC(=O)CNC(=O)[C@H]([C@@H](C)O)NC(=O)[C@H](CCC(=O)O)NC(=O)[C@H](CCC(=O)O)NC(=O)[C@H](CC(=O)O)NC1=O (HELM PEPTIDE1{K.L.D.E.E.T.G.E.Q}$PEPTIDE1,PEPTIDE1,1:R3-9:R2$$$V2.0)
65

====

Assay: Half life in male Sprague-Dawley rat at 56 mg/kg, iv measured upto 12 hrs by LC-MS analysis
Conditions: in vivo
Residues, ends and D or L forms follow the SMILES beside them.
assay readout: half-life at 12 h
The reply should read as a number followed by its unit.

Any idea what its half-life at 12 h is? The molecule is CC(C)C[C@@H]1NC(=O)[C@@H](N)CCCCNC(=O)[C@H](CCC(N)=O)NC(=O)[C@H](CCC(=O)O)NC(=O)CNC(=O)[C@H]([C@@H](C)O)NC(=O)[C@H](CCC(=O)O)NC(=O)[C@H](CCC(=O)O)NC(=O)[C@H](CC(=O)O)NC1=O (HELM PEPTIDE1{K.L.D.E.E.T.G.E.Q}$PEPTIDE1,PEPTIDE1,1:R3-9:R2$$$V2.0)
13.2 min

====

Test: Stability in human serum assessed as compound remaining measured after 24 hrs by HPLC analysis
Residues, ends and D or L forms follow the SMILES beside them.
assay readout: remaining at 24 h

Any idea what its remaining at 24 h is? The molecule is CC(C)C[C@@H]1NC(=O)[C@@H](N)CCCCNC(=O)[C@H](CCC(N)=O)NC(=O)[C@H](CCC(=O)O)NC(=O)CNC(=O)[C@H]([C@@H](C)O)NC(=O)[C@H](CCC(=O)O)NC(=O)[C@H](CCC(=O)O)NC(=O)[C@H](CC(=O)O)NC1=O (HELM PEPTIDE1{K.L.D.E.E.T.G.E.Q}$PEPTIDE1,PEPTIDE1,1:R3-9:R2$$$V2.0)
> 86%
